Target: Nox2 (Homo sapiens, UniProt P04839)
Construct: endogenous in cells
Sequence (P04839 2-570 limits assumed): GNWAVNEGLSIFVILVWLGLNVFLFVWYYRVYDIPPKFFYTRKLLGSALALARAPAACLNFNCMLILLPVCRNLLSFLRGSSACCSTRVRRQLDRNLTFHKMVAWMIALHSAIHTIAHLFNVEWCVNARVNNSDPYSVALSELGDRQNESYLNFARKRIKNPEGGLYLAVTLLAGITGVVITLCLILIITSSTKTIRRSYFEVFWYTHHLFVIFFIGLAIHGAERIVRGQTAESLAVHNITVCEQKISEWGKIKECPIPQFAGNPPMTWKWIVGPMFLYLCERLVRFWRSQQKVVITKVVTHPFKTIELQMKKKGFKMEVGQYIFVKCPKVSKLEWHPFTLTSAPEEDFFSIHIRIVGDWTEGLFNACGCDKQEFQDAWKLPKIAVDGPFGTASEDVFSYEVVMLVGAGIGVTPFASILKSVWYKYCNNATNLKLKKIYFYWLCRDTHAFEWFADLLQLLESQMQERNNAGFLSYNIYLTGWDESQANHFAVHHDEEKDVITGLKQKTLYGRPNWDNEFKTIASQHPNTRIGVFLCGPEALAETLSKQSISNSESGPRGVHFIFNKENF
Sequence (P13498 2-195 partner limits assumed): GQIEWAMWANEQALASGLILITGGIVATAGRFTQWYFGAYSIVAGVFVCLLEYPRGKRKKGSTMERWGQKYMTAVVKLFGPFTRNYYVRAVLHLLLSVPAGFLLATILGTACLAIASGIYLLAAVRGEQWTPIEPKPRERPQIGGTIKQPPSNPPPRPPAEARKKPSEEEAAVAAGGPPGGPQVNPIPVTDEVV
Test: Plate reader hydroethidine (HE + DNA) assay of O2•− production by PMA-activated dHL60 cells
Type: cell-based
Settings: HE probe + DNA, plate reader, PMA-activated dHL60 cells, Figure 5C; read-out: IC50, inhibition of O2•− production
outcomeMeasure: IC50 (µM)

> print(dat)
                                   molecule                               system  outcomemeasure  endpointunit  quantitativeresult
1  CN(C)CCCn1c(SCCc2c[nH]c3ccccc23)nc2ccc(F)cc2c1=O [TG15-132]  Nox2 (Homo sapiens, UniProt P04839)            IC50            µM                   5
